// data source = paper PMC3103431

target_entity: T1, MBNL1 (2-260) (Homo sapiens, UniProt Q9NR56 2-260)
T1 sequence: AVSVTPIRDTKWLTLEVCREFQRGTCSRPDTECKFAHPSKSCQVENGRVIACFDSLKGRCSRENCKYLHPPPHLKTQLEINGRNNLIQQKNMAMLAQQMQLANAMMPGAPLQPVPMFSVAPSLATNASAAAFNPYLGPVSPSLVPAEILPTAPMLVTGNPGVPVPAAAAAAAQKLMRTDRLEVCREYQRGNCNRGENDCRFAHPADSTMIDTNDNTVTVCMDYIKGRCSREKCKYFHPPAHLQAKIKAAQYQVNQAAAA
measurement_notes: EMSA; 5 mM Mg2+; 100 mM NaCl, 21 mM Tris pH 7.5, 5 mM MgCl2, 0.1 mM EDTA, 2 mg/mL BSA, 0.1 mg/mL heparin, 0.5 mM BME, 5 mM DTT, 0.02% Triton X-100, 10% glycerol, 0.02 nM RNA, room temperature 30 min
test_context: protein: recombinant; tags: GST tag removed; label: 5' 32P; single-stranded

binder	readout_unit	Kd
UUCGCCUUUUUUUUUUUCGCCUU (ssRNA) [CGCC]	nM	7
CCCGCCCCCCCCCCCCCCGCCCC (ssRNA) [C]	nM	111
UUUGCUUUUUUUUUUUUUGCUUU (ssRNA) [2GC]	nM	11
